Data origin: patent US8202887B2

Assay: Plasma exposure (AUC) in single-dose, dose-escalating dog study
Format: in vivo, Beagle dogs
Conditions: beagle, oral single dose 20 mg/kg, with ritonavir (RTV) coadministration, mean of 4 animals
measured_endpoint: AUC (ng·h/mL)

CC(C)CN(C[C@@H](O)[C@H](Cc1ccccc1)NC(=O)O[C@H]1CO[C@H]2OCC[C@H]21)S(=O)(=O)c1ccc2nc(NC3CCN(C4CCCC4)CC3)sc2c1	7750

---

Test: Pharmacokinetics of compound II and boosting effect of ritonavir in fed male beagle dogs
Format: in vivo
Conditions: male, beagle, dog, plasma, po, 40 mg/kg, 40 mg/kg compound II single oral, without Ritonavir
measured_endpoint: AUC(0-inf) (ng·h/mL)

CC(C)CN(C[C@@H](O)[C@H](Cc1ccccc1)NC(=O)O[C@H]1CO[C@H]2OCC[C@H]21)S(=O)(=O)c1ccc2nc(NC3CCN(C4CCCC4)CC3)sc2c1	2290
